# measurement.target: sigma receptors (Cavia porcellus, UniProt Q60492)
# Construct: Brain tissue was prepared from male Hartley guinea pigs; tissue Hazelton Labs; host or cells: brain membranes of male Hartley guinea pigs
# Sequence (Q60492 whole entry): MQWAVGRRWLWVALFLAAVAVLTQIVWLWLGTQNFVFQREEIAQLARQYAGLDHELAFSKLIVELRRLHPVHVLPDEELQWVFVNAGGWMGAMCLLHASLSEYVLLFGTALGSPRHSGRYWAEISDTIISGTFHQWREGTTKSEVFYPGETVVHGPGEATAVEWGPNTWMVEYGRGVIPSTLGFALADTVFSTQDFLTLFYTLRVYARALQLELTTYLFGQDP
# procedure.details: sigma receptor binding, [^3 H](+)-pentazocine
# Design: species or system guinea pig
# condition.info: percent (%) inhibition of binding at 10 μM; approximately 0.5 nM radioligand; 37° C., 150 min; guinea pig brain membranes
Catalogue of inhibition at 10 µM readings, one per entry.
Hi, when you answer, please include the unit after the number. Thanks!

Worked examples follow.
C[C@@H]1CCN(C)[C@@H](C)[C@]1(C)CCN(C)C(=O)Cc1ccc(Cl)c(Cl)c1 (relative stereo) [Example 7b]; 94%
C[C@@H]1CCN(Cc2ccccc2)[C@@H](C)[C@]1(C)CCN (relative stereo) [Example 2b]; 83%
C[C@@H]1CCN(C)[C@@H](C)[C@]1(C)CCNC(=O)c1ccsc1 (relative stereo) [Example 5]; 79%

Lab entry: sigma receptors (Cavia porcellus, UniProt Q60492) assay, compound C[C@@H]1CCN(C)[C@@H](C)[C@]1(C)CCNC1CCCC1 (relative stereo) [Example 1c] , inhibition at 10 µM = 57%

Lab entry: sigma receptors (Cavia porcellus, UniProt Q60492) assay, compound CCOC(=O)NCC[C@]1(C)[C@H](C)CCN(C)[C@H]1C (relative stereo) [Example 6] , inhibition at 10 µM = 69%

Lab entry: sigma receptors (Cavia porcellus, UniProt Q60492) assay, compound C[C@@H]1CCN(C)[C@@H](C)[C@]1(C)CCN(C)C1CCCC1 (relative stereo) [Example 3] , inhibition at 10 µM = 90%
